I'd be grateful if you could share measured EC50 for these entries.
biological target: NMDAR2D expressing HEK cell membranes (Homo sapiens, UniProt O15399+Q05586); construct: expressed in transfected cells; host or cells: HEK cells (membrane extract); assay: NMDAR agonist assay, [3H]MK-801 binding, NMDAR2D; format: biochemical; conditions: NMDAR2D: log EC50, 50 μM glutamate; [3H]MK-801 binding
Sequence (O15399 28-1336, other chains not shown): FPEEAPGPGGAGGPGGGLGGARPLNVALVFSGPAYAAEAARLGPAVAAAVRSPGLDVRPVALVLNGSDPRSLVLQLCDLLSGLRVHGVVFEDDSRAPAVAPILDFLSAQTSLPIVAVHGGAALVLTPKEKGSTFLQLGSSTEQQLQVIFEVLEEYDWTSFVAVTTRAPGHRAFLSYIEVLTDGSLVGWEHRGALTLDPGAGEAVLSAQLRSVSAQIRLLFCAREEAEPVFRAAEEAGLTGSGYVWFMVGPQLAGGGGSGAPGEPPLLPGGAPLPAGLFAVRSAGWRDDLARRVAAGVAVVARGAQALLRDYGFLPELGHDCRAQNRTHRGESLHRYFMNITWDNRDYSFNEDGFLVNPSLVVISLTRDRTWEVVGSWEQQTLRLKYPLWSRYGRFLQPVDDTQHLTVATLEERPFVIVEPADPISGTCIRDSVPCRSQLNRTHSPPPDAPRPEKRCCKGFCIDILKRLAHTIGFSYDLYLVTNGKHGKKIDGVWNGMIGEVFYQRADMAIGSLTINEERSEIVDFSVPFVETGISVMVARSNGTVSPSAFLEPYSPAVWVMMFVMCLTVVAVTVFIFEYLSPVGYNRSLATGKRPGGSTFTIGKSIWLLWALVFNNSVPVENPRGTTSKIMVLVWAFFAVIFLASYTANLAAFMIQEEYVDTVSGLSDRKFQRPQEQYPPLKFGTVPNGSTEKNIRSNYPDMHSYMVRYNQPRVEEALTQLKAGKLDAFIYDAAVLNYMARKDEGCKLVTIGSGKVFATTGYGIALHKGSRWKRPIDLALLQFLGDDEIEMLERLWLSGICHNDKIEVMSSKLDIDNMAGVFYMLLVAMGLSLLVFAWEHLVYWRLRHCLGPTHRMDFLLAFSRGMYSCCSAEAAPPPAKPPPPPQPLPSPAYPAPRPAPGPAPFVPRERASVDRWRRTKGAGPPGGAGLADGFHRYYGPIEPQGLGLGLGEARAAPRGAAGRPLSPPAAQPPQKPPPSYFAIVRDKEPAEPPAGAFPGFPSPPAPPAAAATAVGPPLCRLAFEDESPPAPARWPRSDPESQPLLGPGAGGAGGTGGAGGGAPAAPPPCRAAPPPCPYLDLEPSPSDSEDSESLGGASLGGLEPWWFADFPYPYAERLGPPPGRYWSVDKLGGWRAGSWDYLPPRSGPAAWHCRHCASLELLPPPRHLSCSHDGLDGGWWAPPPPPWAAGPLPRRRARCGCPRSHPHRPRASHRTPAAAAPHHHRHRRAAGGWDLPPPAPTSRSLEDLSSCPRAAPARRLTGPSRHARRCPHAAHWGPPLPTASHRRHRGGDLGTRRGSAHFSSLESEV

CC(C)CN1[C@@]2(CC[C@@]13CNC3=O)CNC2=O: > 100 nM

Continue with the compound presented below.
For the compound shown here, O=C1NCC12CCC1(CNC1=O)N2 (single isomer, unassigned) , give the reported EC50.
< 1 nM
